measured-target: Gn of RVFV-SA51 (Rift Valley Fever Virus strain SA51)
assay-summary: cell-based or functional assay
measured-endpoint: IC50 (ng/ml), neutralization of RVFV-SA51 (ng/mL)
Please reply with the bare figure in ng/mL and do not write the unit itself.

Entry under review: RVFV-296 (antibody, V domains shown) VH: QVQLVQSGSELKKSGASVKVSCRASGYTFTTYVMNWVRQAPGQGLEWMGWINTNTGNPTYAQGFTGRFVFSLDTSVSTAYLQINSLKAEDTAVYYCAREYNSFDYWGQGTLVTVSS VL: QSVLTQPPSVSGAPGQRVTISCTGSSSNIGAGYDVHWYQQLPGTAPKLLIYDNNNRPSGVPDRFSGSRSGTSTSLAITGLQAEDEADYYCQSYDFRLSGSVFGGGTKVTVL . Reported IC50 (ng/ml), neutralization of RVFV-SA51?
120

Data credit: patent US12703739
